Target: Caspase-3 (Homo sapiens)
Test: activators of human procaspase-3 D3A mutant, confirmation, biochemical, absorbance, PC-3 D3A mutant, triplicate (AID 488954)
Conditions: recombinant PC-3 D3A, Ac-DEVD-pNA absorbance 405 nm; at 8.5 µM; hits give high values; 100% is higher-enzyme control
The list shows a part of the results.
Would you kindly list activation for each of these compounds?
Answers are plain numbers, in %.

Reference set (4 entries):
COC(=O)c1cnc(Nc2cc(C)ccc2OC)c2ccccc12 | -14.1
Oc1ccccc1C1=NN(c2ccccc2)C(c2ccccc2)C1 (stereo not given) | -13.4
Cc1nn(C)cc1CNC(=O)Nc1ccc(Cl)cc1 | 3.2
CN1CCN(CCCNC(=O)c2ccc(/C=C3\Oc4ccccc4N(Cc4ccc(Cl)cc4)C3=O)cc2)CC1 | -14.8

Next item in the queue.
Need activation, item `COc1ccc(CCNC(=O)COC(=O)c2ccc[nH]c2=O)cc1`
5.06
